For each record, write down the corresponding pKi.
biological target: Prothrombin (Bos taurus, UniProt P00735); assay: Inhibition of bovine plasma thrombin using chromogenix AB as substrate after 30 secs by UV-spectrophotometry
Numbers only, as −log10 of the molar value.

Consider the following illustrative entries.
1. C[C@H]1CNc2c(cccc2S(=O)(=O)N[C@@H](CCCNC(=N)N)C(=O)N2CCC(CCO)CC2)C1; 7.30
2. CC1(C)CNc2c(cccc2S(=O)(=O)N[C@@H](CCCNC(=N)N)C(=O)N2CCC(CCO)CC2)C1; 7.30
3. CC1CNc2c(cccc2S(=O)(=O)N[C@@H](CCCNC(=N)N)C(=O)N2CCC(CCO)CC2)C1 (mixture of isomers); 7.30

As a next step, examine the compound that follows.
Look up pKi for this compound: N=C(N)NCCC[C@H](NS(=O)(=O)c1cccc2c1NCCC2)C(=O)N1CCC(CCO)CC1 6.30
